# assay.notes: Ratio of unbound drug concentration in brain to plasma of non-fasted ICR mouse at 30 mg/kg, po measured after 1 hr by LC-MS/MS analysis
# Format: ADME, organism-based
# condition: read-out: K(p,uu,brain)
observed.property: Kp uu at 1 h

[[record]]
item_smiles = "CC(C)(O)c1ccc(NC(=O)c2ccnn(-c3ccccc3OCC(F)(F)F)c2=O)cc1"
observed_property = "Kp uu at 1 h"
value = 0.26

[[record]]
item_smiles = "CC(C)(O)c1ccc(N2Cc3c(ccnc3-c3ccc(F)cc3OCC(F)(F)F)C2=O)cc1"
observed_property = "Kp uu at 1 h"
value = 0.11


====

# measured.on: CYP1A2 (Homo sapiens, UniProt P05177)
# Sequence (P05177 whole entry): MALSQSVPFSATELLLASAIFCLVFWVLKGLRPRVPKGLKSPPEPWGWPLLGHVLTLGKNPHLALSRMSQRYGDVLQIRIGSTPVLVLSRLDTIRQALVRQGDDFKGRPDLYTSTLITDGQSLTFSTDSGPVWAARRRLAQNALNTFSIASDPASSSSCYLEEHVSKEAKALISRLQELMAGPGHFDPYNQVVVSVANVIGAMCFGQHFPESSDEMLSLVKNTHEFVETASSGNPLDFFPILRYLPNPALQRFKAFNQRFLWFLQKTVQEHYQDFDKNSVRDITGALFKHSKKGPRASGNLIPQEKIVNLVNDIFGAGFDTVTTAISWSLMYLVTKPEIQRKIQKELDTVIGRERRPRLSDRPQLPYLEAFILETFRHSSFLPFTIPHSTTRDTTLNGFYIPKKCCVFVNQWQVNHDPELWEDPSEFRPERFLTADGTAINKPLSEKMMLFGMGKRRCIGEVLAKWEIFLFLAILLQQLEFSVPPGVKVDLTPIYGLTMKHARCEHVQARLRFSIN
# assay.notes: Inhibition of CYP1A2 in human liver microsomes using tacrine as substrate at 10 uM in presence of NADPH generating system incubated for 10 mins
# Format: ADME
# condition: probe tacrine
Form field: inhibition at 10 min, 10 µM (one value per entry).
observed.property: inhibition at 10 min, 10 µM

[[record]]
item_smiles = "CC(C)(O)c1ccc(N2Cc3c(ccnc3-c3ccc(F)cc3OCC(F)(F)F)C2=O)cc1"
value = "5.8%"

[[record]]
item_smiles = "CC(C)(O)c1ccc(NC(=O)c2ccnn(-c3ccccc3OCC(F)(F)F)c2=O)cc1"
value = "9.3%"


====

# assay.notes: Fraction unbound in plasma of non-fasted ICR mouse at 30 mg/kg, po measured after 1 hr by LC-MS/MS analysis
# Type: ADME, organism-based
observed.property: fraction unbound at 1 h

[[record]]
item_smiles = "CC(C)(O)c1ccc(NC(=O)c2ccnn(-c3ccccc3OCC(F)(F)F)c2=O)cc1"
observed_property = "fraction unbound at 1 h"
value = 0.23


====

# measured.on: Ceramide glucosyltransferase (Homo sapiens, UniProt Q16739)
# Sequence (Q16739 whole entry): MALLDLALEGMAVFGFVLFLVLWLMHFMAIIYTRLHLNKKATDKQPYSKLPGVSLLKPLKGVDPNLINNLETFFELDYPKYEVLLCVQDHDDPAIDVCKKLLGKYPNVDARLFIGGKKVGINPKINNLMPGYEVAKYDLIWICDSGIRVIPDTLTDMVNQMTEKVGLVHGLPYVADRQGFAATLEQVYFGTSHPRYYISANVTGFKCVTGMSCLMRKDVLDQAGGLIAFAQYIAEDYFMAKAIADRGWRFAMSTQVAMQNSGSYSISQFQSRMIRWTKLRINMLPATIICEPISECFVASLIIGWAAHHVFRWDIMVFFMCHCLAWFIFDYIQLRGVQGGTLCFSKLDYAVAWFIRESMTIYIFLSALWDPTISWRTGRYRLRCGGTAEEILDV
Form field: IC50 (one value per entry).
observed.property: IC50 (nM)

[[record]]
item_smiles = "COc1ccccc1-c1nccc2c1CN(c1ccc(C)cc1)C2=O"
value = 97

[[record]]
item_smiles = "CC(C)(O)c1ccc(NC(=O)c2ccnn(-c3ccccc3OCC(F)(F)F)c2=O)cc1"
value = 15

[[record]]
item_smiles = "COc1ccccc1-c1ccnc2c1CN(c1ccccc1)C2=O"
value = 17000

[[record]]
item_smiles = "CC(C)(O)c1ccc(NC(=O)c2cccn(-c3ccccc3OCC(F)(F)F)c2=O)cc1"
value = 19

[[record]]
item_smiles = "CC(C)(O)c1ccc(NC(=O)c2cccc(-c3ccccc3OCC(F)(F)F)c2F)cc1"
value = 45


These entries and their values trace back to ChEMBL document CHEMBL5046282.
